# Measurement notes: Quantitative High-Throughput drug screen in 47 multiple myeloma cell lines against the NCATS MIPE library collection: XG6_PLB cell viability assay (AID 1919865); also: nearly all actives have a fitted effect of over 40% in size
# Measurement context: XG6 myeloma viability, CellTiter-Glo ATP luminescence, 48 h; series mostly up to 45.8 µM
Records with an inconclusive call do not appear. Activity calls are given as the source filed them. Calls follow the shape of the dose curve; as a rule, active = well fitted cell-killing curve with a large enough effect; inconclusive = small, poorly fitted or top-dose-only effect, or effect the other way; inactive = no such curve, though single readings can be large or run the other way.
Give one outcome, nothing more. List: yes for active, no for inactive

| Smi | Label class |
| --- | --- |
| CCCCCCOC(=O)N=C(N)c1ccc(NCc2nc3cc(C(=O)N(CCC(=O)OCC)c4ccccn4)ccc3n2C)cc1 | yes |
| CC(C)[C@H](O)C(=O)N[C@@H](C)C(=O)N[C@@H]1C(=O)N(C)CCc2ccccc21 | yes |
| CCNC(=O)Nc1ccc(Oc2ncnc(N)c2C=NOC)cc1Cl | yes |
| COc1cc2c(cc1OC)CC(=O)N(CCCN(C)C[C@H]1Cc3cc(OC)c(OC)cc31)CC2 | no |

# next compound below
input: Check the results log: what was the call for O=C(O)C1=CO[C@@H](O[C@@H]2O[C@H](CO)[C@H](O)[C@H](O)[C@H]2O)[C@@H]2C(CO)=CC[C@H]12 ?
output: no

* * *

This listing pairs compounds with measured Potency.
# Experimental target: Glucocorticoid receptor (Homo sapiens)
# Measurement notes: GR-GFP Redistribution (AID 450); also: potency is read from the fitted curve at half-maximal effect
# Measurement context: U2OS GR-GFP nuclear translocation, laser cytometry, 2 h
Active and inactive are the calls of the source.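 How the source made its calls: active means compounds whose dose series gives a full or clear partial fitted curve of increased nuclear translocation; inconclusive means weak partial curve or effect only at the top dose; inactive means no dose-dependent translocation response.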

// below: answered compounds
| Smi | Value kind | Result |
| --- | --- | --- |
| CN(C)c1ccccc1CN1CCCN(Cc2ccccc2N(C)C)C1c1ccncc1 | Potency | > 46 µM (inactive) |
| O=S(=O)(O)c1ccc2cc(N=Nc3cc(S(=O)(=O)O)c4cccnc4c3O)ccc2c1 | Potency | > 46 µM (inactive) |

input: Form field: reported Potency of C=C1c2cccc(O)c2C(O)=C2C(=O)[C@@]3(O)C(O)=C(C(N)=O)C(=O)[C@@H](N(C)C)[C@@H]3[C@@H](O)[C@H]12
output: > 20.6 µM (inactive)

* * *

# Tested on: WaGa
# Measurement notes: qHTS assay to identify novel small-molecules to repurpose for Merkel cell carcinoma treatment (AID 1296009); also: nearly all actives have a fitted effect of over 60% in size
# Measurement context: MCC and control cell lines, CellTiter-Glo viability, 72 h; series mostly up to 46 µM
Inconclusive results are not listed. Active and inactive are the calls of the source. The call rests on the fitted dose curve; in most records, active means well fitted inhibition curve with a large enough effect; inconclusive means small, poorly fitted or top-dose-only effect; inactive means flat fitted curve, though single readings scatter.
Give one outcome, nothing more. List: True (active), False (inactive)

Solved entries:
| Molecule | Label class |
| --- | --- |
| N#Cc1c(N(CC(=O)O)CC(=O)O)sc(C(=O)O)c1CC(=O)O | False |
| CC(C)(C)c1nc(-c2cccc(NS(=O)(=O)c3c(F)cccc3F)c2F)c(-c2ccnc(N)n2)s1 | False |
| C[C@@]1(c2cc(-c3cncnc3)c(F)cc2F)CCSC(N)=N1 | False |
| Nc1[nH]nc2nnc(-c3c(-c4ccccc4)nn4ccccc34)cc12 | True |

input: Check the results log: what was the call for CC[C@@H]([C@H](C)O)n1ncn(-c2ccc(N3CCN(c4ccc(OCC5CO[C@@](Cn6cncn6)(c6ccc(F)cc6F)C5)cc4)CC3)cc2)c1=O (stereo partly specified) ?
output: False

input: Check the results log: what was the call for Cn1cnc(-c2cc3nccc(Oc4ccc(NC(=S)NC(=O)Cc5ccccc5)cc4F)c3s2)c1 ?
output: False
